test system: SNB-75; assay: NCI tumour cell line growth inhibition, 48 h
Activity calls are given as the source filed them. Cut-off read from the data, not from the text of the source: active = GI50 up to about 1.1 µM and inactive = higher.

molecule: c1ccc(C2=NNC3c4ccccc4-c4ccccc4N3C2)cc1 (stereo not drawn)
target of assay: SNB-75
GI50: 21.9 µM (inactive)
//
molecule: O=C1C(Cl)N(c2ccc([N+](=O)[O-])cc2)C1c1c[nH]c2ccccc12 (stereo not drawn)
target of assay: SNB-75
GI50: > 100 µM (inactive)
//
molecule: C#CC1(O)C(COP(=O)(O)OCC2OC(n3ccc(NCCCCCCCCCCCCCCCCCC)nc3=O)C(O)C2O)OC(n2ccc(N)nc2=O)C1O (stereo not drawn)
target of assay: SNB-75
GI50: 2.67 µM (inactive)

---

Reported values: GI50 for HCT-15, one per item.
assay endpoint: GI50 (µM)

compound: CC(C)(C)NNC(=O)/C(=C/c1ccc([N+](=O)[O-])cc1)NC(=O)c1ccccc1
result modifier: >
val: 100
//
compound: CCCc1nnc2sc(COc3ccc(OCc4nn5c(CCC)nnc5s4)c(Cl)c3)nn12
result modifier: =
val: 24.9
//
compound: CCCC(=O)OC1CC(n2cc(F)c(=O)[nH]c2=O)OC1COP(=O)(OCC(Cl)(Cl)Cl)OCC(Cl)(Cl)Cl (stereo unspecified)
result modifier: =
val: 22.1
//
compound: CCN1CN(c2ccccc2)C2(CCN(CC3COc4ccccc4O3)CC2)C1=O (stereo unspecified)
result modifier: =
val: 20.5
//
compound: Nc1nc2c(ncn2CCCC(c2ccccc2)P(=O)(O)O)c(=O)[nH]1 (stereo unspecified)
result modifier: >
val: 100
//
compound: NC(=O)C(=O)n1ncc(Cl)c(Cl)c1=O
result modifier: >
val: 46.9
//
compound: COc1cc(C(=O)N(Cc2cccnc2)C(=S)N(Cc2cccnc2)C(=O)c2cc(OC)c(OC)c(OC)c2)cc(OC)c1OC
result modifier: =
val: 37.7
//
compound: O=c1[nH]cnc2c1ncn2[C@@H]1C[C@@H]1CO
result modifier: >
val: 100
//
compound: CC(C)(C)OC(=O)NCCCCC(N)C(N)=O (stereo unspecified)
result modifier: >
val: 100
//
compound: Cc1nn2c(=O)c([N+](=O)[O-])c(/C=C/c3ccc(F)cc3)nc2s1
result modifier: =
val: 7.5
//
compound: CC[C@@]1(O)C(=O)OCc2c1c(Cl)c1n(c2=O)Cc2cc3ccccc3nc2-1
result modifier: =
val: 7.98

---

tested on: M19-MEL; assay: NCI tumour cell line growth inhibition, 48 h
Calls of active or inactive are those of the source. Rule as the data show it: active = GI50 up to about 1.1 µM and inactive = higher.
Item-by-item account of GI50

compound: CC1(Cl)CC2C(CC1Sc1nnnn1-c1ccccc1)C2(C)C (centres undefined)
GI50: > 100 µM (inactive)
//
compound: CC(C)(C)NNC(=O)/C(=C/c1ccc([N+](=O)[O-])cc1)NC(=O)c1ccccc1
GI50: > 100 µM (inactive)
//
compound: CCOc1ccc(NC(=O)CC2C(=O)Nc3ccccc3[S+]2[O-])cc1 (centres undefined)
GI50: > 100 µM (inactive)
//
compound: COc1cc2ccn3c4cc(OC)c(OC)cc4cc3c2cc1OC
GI50: > 100 µM (inactive)
//
compound: C(=N\Nc1ccccc1)/c1nc2ccccc2nc1/C=N/Nc1ccccc1
GI50: 20.7 µM (inactive)
//
compound: Cc1ccc(N2Cc3c(ccc4ccccc34)OP2(=S)N2CCCC2)cc1 (centres undefined)
GI50: > 100 µM (inactive)
//
compound: COC(=O)C(C(=O)C(=O)Nc1ccc(C(F)(F)F)cc1[N+](=O)[O-])c1csc(-n2nc(-c3ccccc3)cc2-c2ccccc2)n1 (centres undefined)
GI50: > 100 µM (inactive)
//
compound: COc1ccc(-c2nc3c(nc2-c2ccc(OC)cc2)N(C)S(=O)(=O)N=C3N)cc1
GI50: 31.5 µM (inactive)
//
compound: Nc1nc2c(ncn2CCCC(c2ccccc2)P(=O)(O)O)c(=O)[nH]1 (centres undefined)
GI50: > 100 µM (inactive)
//
compound: CCOC(=O)C(=C=Cc1cccs1)C(=O)c1ccccc1
GI50: 17.2 µM (inactive)
//
compound: C[Si](C)(c1ccccc1)C1CC(=O)CC(=O)C1
GI50: > 100 µM (inactive)
//
compound: O=C(OCCO)C1CC2CC1C1(C2)OCCO1 (centres undefined)
GI50: > 100 µM (inactive)
//
compound: c1ccc2c(NCCCCCCCCNc3cccc4ccccc34)cccc2c1
GI50: > 10 µM (inactive)
//
compound: Cc1cc2c(cc1C)NC(=O)C(NC(=O)/C=C/c1ccccc1)C=N2 (centres undefined)
GI50: 33.3 µM (inactive)
//
compound: COc1c(OC2OC(CO)C(O)C(O)C2O)cc2c(c1OC)-c1ccc(OC)c(=O)cc1[C@@H](NC(C)=O)CC2 (some centres undefined)
GI50: 60.1 µM (inactive)
//
compound: COc1c(O)c(C=O)c2c(O)c(-c3c(C)cc4c(C(C)C)c(OC)c(O)c(C=O)c4c3O)c(C)cc2c1C(C)C [6,6'-METHOXYGOSSYPOL]
GI50: 3.65 µM (inactive)
//
compound: Cc1ccc(S(=O)(=O)NC2(C=O)CCC(C(C)(C)C)CC2)cc1 (centres undefined)
GI50: 24.7 µM (inactive)
//
compound: C[C@@H]1OC(=O)N2CCCC(=C3SCCCS3)C12 (some centres undefined)
GI50: 45.6 µM (inactive)
//
compound: COc1cccc(C2C(C(=O)Nc3cc(=O)n(C)c(=O)n3C)=C(C)NC(C)=C2C(=O)Nc2cc(=O)n(C)c(=O)n2C)c1O
GI50: > 100 µM (inactive)

The reported numbers originate from ChEMBL document CHEMBL1201862.
